assay: Formation and TEM size of amine-passivated Au nanoparticles; type: physicochemical; conditions: size of the Au nanoparticle formed with the named amine compound as ligand, same synthesis conditions
ENDPOINT: nanoparticle (formation of monolayer-protected Au nanoparticles) (nm)
The response must be a number in nm with no trailing unit.

Record request: nanoparticle (formation of monolayer-protected Au nanoparticles) value, item Nc1ncnc2c1ncn2[C@@H]1O[C@H](COP(=O)(O)OP(=O)(O)OP(=O)(O)O)[C@@H](O)[C@H]1O [adenosine triphosphate]
2.1

Next record, please: Nc1nc2ncc(CNc3ccc(C(=O)N[C@@H](CCC(=O)O)C(=O)O)cc3)nc2c(=O)[nH]1
2.6

Field entry: Nc1ccn([C@@H]2O[C@H](COP(=O)(O)O)[C@@H](O)[C@H]2O)c(=O)n1 [cytidine monophosphate]
4.5

Input COC(=O)CCC(NC(=O)c1ccc(N(C)Cc2cnc3nc(N)nc(N)c3n2)cc1)C(=O)OC (centres unmarked) [methotrexate dimethyl ester]
2.2
